- experimental-protocol: Selectivity index, ratio of IC50 for equine serum BuChE to IC50 for electric eel AChE
The entries below come with measured Ratio IC50 values attached.
// no unit string in output, number only

Examples from the recorded data:
compound-smiles | metric | reported-measurement
O=C1C(=Cc2ccc(N3CCN(C(c4ccccc4)c4ccccc4)CC3)cc2)C(=O)c2ccccc21 | Ratio IC50 | 54.9
O=C1C(=Cc2ccc(N3CCN(Cc4ccc5c(c4)OCO5)CC3)cc2)C(=O)c2ccccc21 | Ratio IC50 | 33.8

Continue with the compound presented below.
Task: Requested field: Ratio IC50. Item: "O=C1C(=Cc2ccc(N3CCN(C(=O)c4ccccc4)CC3)cc2)C(=O)c2ccccc21"
Result: 0.9

Values compiled from ChEMBL document CHEMBL3817760.
